Just for reference, patent US11358949B2 is where these values come from.

# TARGET SYSTEM: MNK2 (Homo sapiens)
# Sequence (Q9HBH9 whole entry): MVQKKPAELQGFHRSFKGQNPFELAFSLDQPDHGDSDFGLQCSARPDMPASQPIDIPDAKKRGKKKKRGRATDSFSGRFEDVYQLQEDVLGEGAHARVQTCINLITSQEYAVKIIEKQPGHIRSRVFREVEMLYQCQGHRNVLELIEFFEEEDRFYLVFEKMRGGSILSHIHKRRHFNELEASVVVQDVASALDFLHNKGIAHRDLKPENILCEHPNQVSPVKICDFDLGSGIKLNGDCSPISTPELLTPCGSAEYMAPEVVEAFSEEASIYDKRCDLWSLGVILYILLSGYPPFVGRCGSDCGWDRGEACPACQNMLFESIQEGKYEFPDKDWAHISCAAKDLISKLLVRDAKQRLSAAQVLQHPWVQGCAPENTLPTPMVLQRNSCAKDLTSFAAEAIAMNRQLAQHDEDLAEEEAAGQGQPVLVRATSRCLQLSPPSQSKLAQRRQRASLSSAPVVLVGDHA
# ASSAY DETAILS: HotSpot Kinase Assay, MNK2
pIC50: −log10 of the molar value.
ENDPOINT: pIC50

| MOLECULE | RECORDED VALUE |
| --- | --- |
| COc1cc2c(Oc3ccc(NC(=O)C4(C(=O)Nc5ccc(F)cc5)CC4)cc3)ccnc2cc1OC(=O)N1CCN(C)CC1 [Compound 1-10] | 6.00 to 7.00 |

* * *

# TARGET SYSTEM: UniProt Q13882
# Sequence (Q13882 whole entry): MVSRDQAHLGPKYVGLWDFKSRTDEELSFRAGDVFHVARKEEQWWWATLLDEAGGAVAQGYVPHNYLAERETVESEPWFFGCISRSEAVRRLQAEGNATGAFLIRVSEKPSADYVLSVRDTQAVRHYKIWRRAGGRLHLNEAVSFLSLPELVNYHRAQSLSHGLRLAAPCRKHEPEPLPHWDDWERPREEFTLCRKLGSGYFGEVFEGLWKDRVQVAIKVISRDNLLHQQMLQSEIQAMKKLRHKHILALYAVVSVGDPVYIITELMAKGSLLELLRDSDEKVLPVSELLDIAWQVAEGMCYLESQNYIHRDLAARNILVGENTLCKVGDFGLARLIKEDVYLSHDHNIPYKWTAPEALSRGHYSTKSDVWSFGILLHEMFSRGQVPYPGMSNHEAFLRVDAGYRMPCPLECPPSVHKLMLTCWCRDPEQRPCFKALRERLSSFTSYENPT
pIC50: −log10 of the molar value.
ENDPOINT: pIC50

| COMPOUND | RECORDED VALUE |
| --- | --- |
| COc1cc2c(Oc3ccc(NC(=O)C4(C(=O)Nc5ccc(F)cc5)CC4)cc3)ccnc2cc1OC(=O)N1CCN(C)CC1 [Compound 1-10] | > 7.00 |

* * *

pIC50: −log10 of the molar value.
# c-MER (Homo sapiens, UniProt Q12866): pIC50 values follow
# Sequence (Q12866 21-999): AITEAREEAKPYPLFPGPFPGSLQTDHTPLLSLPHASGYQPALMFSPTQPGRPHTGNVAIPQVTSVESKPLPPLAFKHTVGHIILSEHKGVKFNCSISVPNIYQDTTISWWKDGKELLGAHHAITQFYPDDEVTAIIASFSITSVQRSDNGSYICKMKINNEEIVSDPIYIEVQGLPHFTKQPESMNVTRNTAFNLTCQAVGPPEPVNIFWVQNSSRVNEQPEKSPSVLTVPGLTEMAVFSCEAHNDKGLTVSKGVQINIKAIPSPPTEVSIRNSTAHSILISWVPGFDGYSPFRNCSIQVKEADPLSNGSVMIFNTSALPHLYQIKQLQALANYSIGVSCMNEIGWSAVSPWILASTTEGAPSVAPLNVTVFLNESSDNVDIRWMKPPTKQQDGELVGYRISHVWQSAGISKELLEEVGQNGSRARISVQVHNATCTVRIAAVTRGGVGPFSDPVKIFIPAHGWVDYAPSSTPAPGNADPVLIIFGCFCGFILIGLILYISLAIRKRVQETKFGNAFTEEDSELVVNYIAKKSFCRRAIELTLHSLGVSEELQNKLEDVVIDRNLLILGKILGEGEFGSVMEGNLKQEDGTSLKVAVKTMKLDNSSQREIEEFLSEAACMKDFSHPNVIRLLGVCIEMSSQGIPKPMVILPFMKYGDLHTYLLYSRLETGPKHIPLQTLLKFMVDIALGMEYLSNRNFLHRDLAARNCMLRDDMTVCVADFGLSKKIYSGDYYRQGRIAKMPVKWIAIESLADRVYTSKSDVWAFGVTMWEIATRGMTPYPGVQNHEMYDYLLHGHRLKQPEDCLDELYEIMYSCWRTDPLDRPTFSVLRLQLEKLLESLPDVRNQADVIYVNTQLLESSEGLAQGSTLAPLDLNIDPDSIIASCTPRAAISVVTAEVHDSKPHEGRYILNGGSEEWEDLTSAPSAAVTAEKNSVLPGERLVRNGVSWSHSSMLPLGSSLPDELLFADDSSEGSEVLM

| LINE NOTATION | pIC50 |
| --- | --- |
| COc1cc2c(Oc3ccc(NC(=O)C4(C(=O)Nc5ccc(F)cc5)CC4)cc3F)ccnc2cc1OC(=O)N1CCN(C)C[C@H]1C | > 7.00 |
| COc1cc2c(Oc3ccc(NC(=O)C4(C(=O)Nc5ccc(F)cc5)CC4)cc3)ccnc2cc1OC(=O)N1CC[C@H](O)C1 | > 7.00 |
| COc1cc2nccc(Oc3ccc(NC(=O)C4(C(=O)Nc5ccc(F)cc5)CC4)cc3)c2cc1OC(=O)N1CCN(C)C[C@H]1C | > 7.00 |

* * *

# c-MER (Homo sapiens, UniProt Q12866): pIC50 values follow
pIC50: −log10 of the molar value.

| LINE NOTATION | TARGET SYSTEM | pIC50 |
| --- | --- | --- |
| COc1cc2c(Oc3ccc(NC(=O)C4(C(=O)Nc5ccc(F)cc5)CC4)cc3)ccnc2cc1OC(=O)N1C[C@H]2C[C@@H]1CN2C | c-MER (Homo sapiens, UniProt Q12866) | > 7.00 |
| COc1cc2c(Oc3ccc(NC(=O)C4(C(=O)Nc5ccc(F)cc5)CC4)cc3)ccnc2cc1OC(=O)N1CCCC1 | c-MER (Homo sapiens, UniProt Q12866) | 6.00 to 7.00 |
| COc1cc2c(Oc3ccc(NC(=O)C4(C(=O)Nc5ccc(F)cc5)CC4)cc3)ccnc2cc1OC(=O)N1CCN(C)CC1(C)C | c-MER (Homo sapiens, UniProt Q12866) | > 7.00 |

* * *

# TARGET SYSTEM: DDR1 (Homo sapiens, UniProt Q08345)
# Sequence (Q08345 19-913): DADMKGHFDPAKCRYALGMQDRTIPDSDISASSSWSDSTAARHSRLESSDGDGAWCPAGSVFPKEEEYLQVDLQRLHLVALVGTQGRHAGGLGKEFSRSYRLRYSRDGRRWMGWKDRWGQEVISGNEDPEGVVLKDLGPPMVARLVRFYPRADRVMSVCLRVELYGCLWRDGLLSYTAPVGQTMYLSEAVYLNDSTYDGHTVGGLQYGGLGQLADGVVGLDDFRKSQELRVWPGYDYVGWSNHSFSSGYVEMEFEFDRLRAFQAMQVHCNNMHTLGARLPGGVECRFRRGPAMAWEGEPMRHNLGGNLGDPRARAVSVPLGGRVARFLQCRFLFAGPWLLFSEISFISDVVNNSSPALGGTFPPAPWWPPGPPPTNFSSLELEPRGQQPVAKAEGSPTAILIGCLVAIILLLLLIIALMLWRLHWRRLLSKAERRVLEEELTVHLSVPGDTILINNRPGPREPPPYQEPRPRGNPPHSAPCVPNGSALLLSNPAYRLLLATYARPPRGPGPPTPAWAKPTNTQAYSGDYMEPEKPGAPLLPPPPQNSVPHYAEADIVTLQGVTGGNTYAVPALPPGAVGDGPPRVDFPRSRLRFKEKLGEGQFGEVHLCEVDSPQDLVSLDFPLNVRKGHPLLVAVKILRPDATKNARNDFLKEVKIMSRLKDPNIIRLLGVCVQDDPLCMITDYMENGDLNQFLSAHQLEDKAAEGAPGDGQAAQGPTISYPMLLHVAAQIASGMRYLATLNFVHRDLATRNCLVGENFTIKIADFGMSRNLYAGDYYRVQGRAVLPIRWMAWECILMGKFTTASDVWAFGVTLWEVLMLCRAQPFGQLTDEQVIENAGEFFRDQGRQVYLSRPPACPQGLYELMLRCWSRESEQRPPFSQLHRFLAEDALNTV

| LINE NOTATION | IC50 |
| --- | --- |
| COc1cc2nccc(Oc3ccc(NC(=O)C4(C(=O)Nc5ccc(F)cc5)CC4)cc3)c2cc1OC(=O)N1CCNC[C@H]1C | < 100 nM |
| COc1cc2c(Oc3ccc(NC(=O)C4(C(=O)Nc5ccc(F)cc5)CC4)cc3)ncnc2cc1OC(=O)N1CCNC[C@H]1C | < 100 nM |
| COc1cc2c(Oc3ccc(NC(=O)C4(C(=O)Nc5ccc(F)cc5)CC4)cc3)ccnc2cc1OC(=O)N1C[C@@H]2C[C@H]1CN2C | < 100 nM |

* * *

# TARGET SYSTEM: DDR2 (Homo sapiens, UniProt Q16832)
# Sequence (Q16832 22-855): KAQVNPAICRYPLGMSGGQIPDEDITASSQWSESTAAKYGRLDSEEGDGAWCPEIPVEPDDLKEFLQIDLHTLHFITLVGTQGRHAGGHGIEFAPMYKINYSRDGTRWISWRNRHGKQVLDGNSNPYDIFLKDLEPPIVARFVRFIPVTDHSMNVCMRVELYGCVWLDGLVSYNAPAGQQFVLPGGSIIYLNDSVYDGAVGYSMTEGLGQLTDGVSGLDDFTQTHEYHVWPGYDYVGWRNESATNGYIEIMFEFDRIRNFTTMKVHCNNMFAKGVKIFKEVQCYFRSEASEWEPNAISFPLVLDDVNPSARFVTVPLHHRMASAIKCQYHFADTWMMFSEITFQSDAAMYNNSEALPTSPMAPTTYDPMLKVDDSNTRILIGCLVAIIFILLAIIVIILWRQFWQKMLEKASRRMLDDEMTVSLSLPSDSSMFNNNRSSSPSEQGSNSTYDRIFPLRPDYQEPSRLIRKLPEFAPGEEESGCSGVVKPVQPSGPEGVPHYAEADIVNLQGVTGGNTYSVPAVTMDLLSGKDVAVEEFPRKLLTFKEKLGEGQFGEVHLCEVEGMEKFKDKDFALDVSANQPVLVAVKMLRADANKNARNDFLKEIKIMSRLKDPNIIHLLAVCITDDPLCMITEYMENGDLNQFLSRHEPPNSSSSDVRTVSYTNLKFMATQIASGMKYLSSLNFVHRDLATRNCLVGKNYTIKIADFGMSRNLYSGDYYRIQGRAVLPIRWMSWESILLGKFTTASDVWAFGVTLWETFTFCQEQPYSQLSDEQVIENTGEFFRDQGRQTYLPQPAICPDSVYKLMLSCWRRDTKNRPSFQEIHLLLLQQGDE

| LINE NOTATION | IC50 |
| --- | --- |
| COc1cc2c(Oc3ccc(NC(=O)C4(C(=O)Nc5ccc(F)cc5)CC4)cc3)ccnc2cc1OC(=O)N1CCN(C)CC1 | < 100 nM |

* * *

# AXL (Homo sapiens, UniProt P30530): IC50 values follow

| COMPOUND | IC50 |
| --- | --- |
| COc1cc2c(Oc3ccc(NC(=O)C4(C(=O)Nc5ccc(F)cc5)CC4)cc3)ccnc2cc1OC(=O)N1CCN(C)CC1(C)C [Compound 6-6] | < 100 nM |
| COc1cc2c(Oc3ccc(NC(=O)C4(C(=O)Nc5ccc(F)cc5)CC4)cc3)ccnc2cc1OC(=O)N1CCN(C)CC1 [Compound 1-10] | < 100 nM |
| COc1cc2c(Oc3ccc(NC(=O)C4(C(=O)Nc5ccc(F)cc5)CC4)cc3)ncnc2cc1OC(=O)N1CCNC[C@H]1C [Compound 8-5] | 100 to 1000 nM |
| COc1cc2c(Oc3ccc(NC(=O)C4(C(=O)Nc5ccc(F)cc5)CC4)cc3F)ccnc2cc1OC(=O)N1CCN(C)C[C@@H]1C [Compound 3-6] | < 100 nM |
| COc1cc2c(Oc3ccc(NC(=O)C4(C(=O)Nc5ccc(F)cc5)CC4)cc3)ccnc2cc1OC(=O)N1CCOCC1 [Compound 1-17] | 100 to 1000 nM |
| COc1cc2nccc(Oc3ccc(NC(=O)C4(C(=O)Nc5ccc(F)cc5)CC4)cc3)c2cc1OC(=O)N1CCNCC1(C)C [Compound 7-6] | < 100 nM |

* * *

# c-Kit (Homo sapiens, UniProt P10721): IC50 values follow
# Sequence (P10721 26-976): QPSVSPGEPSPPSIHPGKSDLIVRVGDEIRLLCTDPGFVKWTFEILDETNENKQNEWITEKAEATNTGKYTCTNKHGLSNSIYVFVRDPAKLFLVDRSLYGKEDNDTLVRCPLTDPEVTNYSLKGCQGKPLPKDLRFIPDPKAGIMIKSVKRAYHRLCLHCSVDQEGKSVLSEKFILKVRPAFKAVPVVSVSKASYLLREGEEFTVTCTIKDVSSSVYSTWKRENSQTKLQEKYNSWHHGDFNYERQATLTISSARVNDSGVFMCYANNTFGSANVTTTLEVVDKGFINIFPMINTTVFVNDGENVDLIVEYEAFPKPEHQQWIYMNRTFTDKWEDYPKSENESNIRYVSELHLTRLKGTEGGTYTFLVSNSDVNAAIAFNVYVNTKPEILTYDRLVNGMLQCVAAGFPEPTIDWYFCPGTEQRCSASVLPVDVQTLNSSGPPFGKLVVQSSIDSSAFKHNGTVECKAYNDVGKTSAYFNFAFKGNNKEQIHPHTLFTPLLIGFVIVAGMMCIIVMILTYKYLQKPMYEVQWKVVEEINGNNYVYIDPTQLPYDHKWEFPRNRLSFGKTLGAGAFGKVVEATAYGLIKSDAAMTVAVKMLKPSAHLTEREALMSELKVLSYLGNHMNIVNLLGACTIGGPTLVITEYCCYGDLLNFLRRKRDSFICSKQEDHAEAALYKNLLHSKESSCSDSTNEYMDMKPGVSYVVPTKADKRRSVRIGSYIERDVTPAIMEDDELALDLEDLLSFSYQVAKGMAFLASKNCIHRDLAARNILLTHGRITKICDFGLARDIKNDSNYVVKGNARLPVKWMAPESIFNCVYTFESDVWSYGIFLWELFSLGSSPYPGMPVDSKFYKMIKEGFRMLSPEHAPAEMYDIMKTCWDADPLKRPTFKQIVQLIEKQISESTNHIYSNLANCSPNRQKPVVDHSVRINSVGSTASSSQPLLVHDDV
ENDPOINT: IC50

| LINE NOTATION | ENDPOINT | RECORDED VALUE |
| --- | --- | --- |
| COc1cc2c(Oc3ccc(NC(=O)C4(C(=O)Nc5ccc(F)cc5)CC4)cc3)ccnc2cc1OC(=O)N1C[C@H]2C[C@@H]1CN2C | IC50 | < 0.1 µM |
| COc1cc2c(Oc3ccc(NC(=O)C4(C(=O)Nc5ccc(F)cc5)CC4)cc3)ccnc2cc1OC(=O)N1CCN(C)[C@@H](C)C1 | IC50 | < 0.1 µM |
| COc1cc2nccc(Oc3ccc(NC(=O)C4(C(=O)Nc5ccc(F)cc5)CC4)cc3)c2cc1OC(=O)N1CCN(C)CC1(C)C | IC50 | < 0.1 µM |
| COc1cc2c(Oc3ccc(NC(=O)C4(C(=O)Nc5ccc(F)cc5)CC4)cc3)ccnc2cc1OC(=O)N1CCN(C)CC1(C)C | IC50 | < 0.1 µM |
| COc1cc2c(Oc3ccc(NC(=O)C4(C(=O)Nc5ccc(F)cc5)CC4)cc3)ccnc2cc1OC(=O)N1CCNC[C@H]1C | IC50 | < 0.1 µM |
| COc1cc2c(Oc3ccc(NC(=O)C4(C(=O)Nc5ccc(F)cc5)CC4)cc3F)ccnc2cc1OC(=O)N1CCN(C)C[C@@H]1C | IC50 | 0.1 to 1 µM |
| COc1cc2c(Oc3ccc(NC(=O)C4(C(=O)Nc5ccc(F)cc5)CC4)cc3)ccnc2cc1OC(=O)N1[C@H](C)CN(C)C[C@@H]1C | IC50 | < 0.1 µM |
| COc1cc2c(Oc3ccc(NC(=O)C4(C(=O)Nc5ccc(F)cc5)CC4)cc3)ccnc2cc1OC(=O)N1CCN(C)C[C@@H]1C | IC50 | < 0.1 µM |
| COc1cc2c(Oc3ccc(NC(=O)C4(C(=O)Nc5ccc(F)cc5)CC4)cc3)ncnc2cc1OC(=O)N1CCN(C)C[C@H]1C | IC50 | 0.1 to 1 µM |
| COc1cc2c(Oc3ccc(NC(=O)C4(C(=O)Nc5ccc(F)cc5)CC4)cc3)ccnc2cc1OC(=O)N1CCNCC1(C)C | IC50 | < 0.1 µM |
| COc1cc2c(Oc3ccc(NC(=O)C4(C(=O)Nc5ccc(F)cc5)CC4)cc3)ccnc2cc1OC(=O)N(C)C | IC50 | 0.1 to 1 µM |
| COc1cc2c(Oc3ccc(NC(=O)C4(C(=O)Nc5ccc(F)cc5)CC4)cc3)ccnc2cc1OC(=O)N1CCN(C)[C@H](C)C1 | IC50 | < 0.1 µM |
| COc1cc2c(Oc3ccc(NC(=O)C4(C(=O)Nc5ccc(F)cc5)CC4)cc3)ccnc2cc1OC(=O)N1CCN(C)CC1 | IC50 | < 0.1 µM |

* * *

# FMS (Homo sapiens, UniProt P07333): IC50 values follow

| LINE NOTATION | IC50 |
| --- | --- |
| COc1cc2c(Oc3ccc(NC(=O)C4(C(=O)Nc5ccc(F)cc5)CC4)cc3)ccnc2cc1OC(=O)N1CCN(C)C[C@H]1C | < 0.1 µM |
| COc1cc2c(Oc3ccc(NC(=O)C4(C(=O)Nc5ccc(F)cc5)CC4)cc3)ccnc2cc1OC(=O)N1CC[C@@H](O)C1 | 0.1 to 1 µM |
| COc1cc2c(Oc3ccc(NC(=O)C4(C(=O)Nc5ccc(F)cc5)CC4)cc3)ncnc2cc1OC(=O)N1CCNC[C@H]1C | 0.1 to 1 µM |

* * *

# c-Kit (Homo sapiens, UniProt P10721): IC50 values follow

| COMPOUND | IC50 |
| --- | --- |
| COc1cc2c(Oc3ccc(NC(=O)C4(C(=O)Nc5ccc(F)cc5)CC4)cc3F)ncnc2cc1OC(=O)N1CCN(C)C[C@H]1C [Compound 9-6] | 100 to 1000 nM |
| COc1cc2c(Oc3ccc(NC(=O)C4(C(=O)Nc5ccc(F)cc5)CC4)cc3)ccnc2cc1OC(=O)N1[C@H](C)CNC[C@@H]1C [Compound 6-2] | < 100 nM |
| COc1cc2nccc(Oc3ccc(NC(=O)C4(C(=O)Nc5ccc(F)cc5)CC4)cc3)c2cc1OC(=O)N1[C@H](C)CN(C)C[C@@H]1C [Compound 7-5] | < 100 nM |
